Listed next: entries and their corresponding apparent KD of MS2 coat protein.
- Test system: MS2 coat protein
- ASSAY REMARKS: apparent KD of MS2 coat protein; designed switch direction (-1 OFF switch, 1 ON switch): 1; higher = weaker reporter binding
- CONDITION SUMMARY: input ligand: FMN 200 uM
Express it in nM; write the number only.

Solved cases (5 shown):
- SEQ: "AAUUAAGAUCAAGGAUAUCACGUCGAUUAGACGUGAGAAGGUGAUAAUUACAUGAGGAUCACCCAUGUAUAACAUGAAUUAAUU [SSNG1/9-B2] (Eterna round: R96, puzzle: Same State NG 1)"
  apparent KD of MS2 coat protein [nM]: 31.8
- SEQ: "GCUAGAAUAAACGCCUACAUGAGGAUCACCCAUGUAUGUAGGCAGGAUAUCGUAUGCAAAGCAUACGAGAAGGGCCUUACUAGC [Mat - Same State NG 3 - JL Mod - D33] (Eterna round: R96, puzzle: Same State NG 3)"
  apparent KD of MS2 coat protein [nM]: 25.7
- SEQ: "UGGCUCAGACGAGGAUAUAUGUCUCGAGCUUCGGCUCGAGACAUGAGGAUCACCCAUGUAAUAACAUAGAAGGCGUCUGAGCCA [SSNG2/1-A2] (Eterna round: R96, puzzle: Same State NG 2)"
  apparent KD of MS2 coat protein [nM]: 22.1
- SEQ: "AGUCCAGCCUGAGCUGGACAAAUGCAUGUACAUGAGGAUCACCCAUGUUCAUGUACAAGCAUUUUGCUCGUCUUAAA [Sensor for hsa-mir-208a (JL zipper 55 mod - 61 to A)] (Eterna round: R96, puzzle: Sensor for hsa-mir-208a)"
  apparent KD of MS2 coat protein [nM]: 330
- SEQ: "UGGCUCAGACGAGGAUAUGAUCAUGGCGCUUCGGCGCAUACAUGAGGAUCACCCAUGUAAAGUGAUCAGAAGGCGUCUGAGCCA [SSNG2/7-A2] (Eterna round: R96, puzzle: Same State NG 2)"
  apparent KD of MS2 coat protein [nM]: 13.2

q: What measured apparent KD of MS2 coat protein goes with GUGGUCAGACAUGAGGAUCACCCAUGUGGAAUAAAUAAGGACUAGGAUAUGUAAUAUAGGAUAUAACAGAAGGAGUGGUUGGUG (Eterna round: R96, puzzle: Same State NG 3) ?
a: 66.8

q: Then AUUAUUUCAUGAGGAUAUGGCACCUUAUUGGUGCCAGAAGGCAUGUCUAUAAGACAUGAGGAUCACCCAUGUUUAAAUUAUAUA [Eli NG1ss - 90] (Eterna round: R96, puzzle: Same State NG 1) ?
a: 24.1

q: One more sequence: GAAAGGCCUACAGGAUAUACCACAGUCUUGUCGGUAGAAGGGUGGGACAUGAGGAUCACCCAUGUACACUCCCAGAUGGGAGUG [Ergeesis] (Eterna round: R96, puzzle: Same State NG 1)
a: 767

q: Quick one: GCCAUCGCAUGAGGAUAUGGCACCGAAACGGUGCCAGAAGGCAUGUCGAAUGACAUGAGGAUCACCCAUGUAGUAUAGAUGGCA [Mat - Same State NG 1 - JL mod - D92] (Eterna round: R96, puzzle: Same State NG 1)
a: 52.9
